- TARGET_ENTITY: UniProtKB P78329
- Sequence (P78329 5-520): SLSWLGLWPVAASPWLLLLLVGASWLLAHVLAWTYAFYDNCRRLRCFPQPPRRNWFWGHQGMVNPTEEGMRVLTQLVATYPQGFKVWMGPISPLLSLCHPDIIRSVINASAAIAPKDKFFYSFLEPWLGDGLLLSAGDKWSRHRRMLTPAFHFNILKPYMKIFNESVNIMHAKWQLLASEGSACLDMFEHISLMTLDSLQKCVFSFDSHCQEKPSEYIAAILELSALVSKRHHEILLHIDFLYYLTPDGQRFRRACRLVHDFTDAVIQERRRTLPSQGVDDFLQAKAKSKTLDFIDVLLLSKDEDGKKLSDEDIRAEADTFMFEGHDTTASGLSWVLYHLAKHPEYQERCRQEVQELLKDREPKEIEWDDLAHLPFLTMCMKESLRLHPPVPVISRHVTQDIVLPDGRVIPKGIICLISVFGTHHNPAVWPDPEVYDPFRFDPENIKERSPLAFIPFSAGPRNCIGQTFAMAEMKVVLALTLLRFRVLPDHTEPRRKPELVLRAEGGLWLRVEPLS
- PROCEDURE_SUMMARY: Inhibition test against 20-HETE producing enzyme CYP4F2 (luciferine derivative, luminescence)
- Format: biochemical
- TEST_PARAMETERS: human CYP4F2, luciferine derivative, luminescence
The label is t for IC50 below 300 nM and f for IC50 equal to or exceeding 300 nM.

Task: Given `CC(C)(COc1ccc(CCCOc2ccc(-c3ccn[nH]3)nc2)cn1)C(=O)O` , is recorded IC50 strictly lower than 300 nM?
Output: t

Task: # TODO verify IC50 < 300 nM strictly for this compound: `O=C(O)C1(Cc2cccc(CCOc3ccc(-c4ccn[nH]4)nc3)c2F)COC1`
Output: f

Task: Threshold test, IC50 < 300 nM: `CC(=O)N1CC(CCCCCCCCOc2ccc(-c3ccn[nH]3)nc2)(C(=O)O)C1`
Output: t

Task: Problem: For the compound `O=C(N[C@H]1CC[C@@H](C(=O)O)CC1)c1cccc(COc2ccc(-c3ccn[nH]3)nc2)c1` , is IC50 under 300 nM?
Output: f

Task: # strict comparison: is reported IC50 < 300 nM? input = `O=C(N[C@H]1CC[C@H](C(=O)O)CC1)c1cccc(COc2ccc(-c3ccn[nH]3)nc2)c1`
Output: f

Task: Could you please tell me whether IC50 recorded for `CC(C)(OCCCCCCCOc1ccc(-c2cnco2)nc1)C(=O)O` is less than 300 nM?
Output: f

Task: Would you kindly verify if IC50 of `O=C(CCc1cccc(COc2ccc(-c3ccn[nH]3)nc2)c1)N1CC(F)(F)C1` is strictly less than 300 nM?
Output: t
